meta.source: patent EP0908457B1

System: Echinochloa oryzoides (Ard.) Fritsch.
Test: Preemergence weed control under flooded paddy conditions, ECHORC (Watergrass (Calif.)); note: meaning of each grade not given here
Assay type: in vivo
Settings: Rate 0.0620 kg/ha; preemergence weeds, flooded paddy; rated three to four weeks after treatment

compound	herbicidal effect rating, ECHORC
CSc1ccc(C)cc1-c1nsc2ccc(-n3c(=O)cc(C(F)(F)F)n(C)c3=O)cc12	4.0
CC(Br)c1nsc2ccc(-n3c(=O)cc(C(F)(F)F)n(C)c3=O)cc12 (stereo not drawn)	0.0
C[C@@H](Br)[C@H](Br)c1nsc2ccc(-n3c(=O)cc(C(F)(F)F)n(C)c3=O)cc12	7.5
Cn1c(C(F)(F)F)cc(=O)n(-c2ccc3snc(C(Cl)Br)c3c2)c1=O (stereo not drawn)	6.0
Cn1c(C(F)(F)F)cc(=O)n(-c2ccc3snc(CO[N+](=O)[O-])c3c2)c1=O	0.0
CC(O)c1nsc2ccc(-n3c(=O)cc(C(F)(F)F)n(C)c3=O)cc12 (stereo not drawn)	5.0
Cn1c(C(F)(F)F)cc(=O)n(-c2ccc3snc(C(=O)Oc4ccc(F)cc4)c3c2)c1=O	0.0
Cn1c(C(F)(F)F)cc(=O)n(-c2ccc3snc(CN(C(=O)OC(C)(C)C)S(C)(=O)=O)c3c2)c1=O	0.0
COc1ccc(C)cc1-c1noc2cc(F)c(-n3c(=O)cc(C(F)(F)F)n(C)c3=O)cc12	9.0
Cn1c(C(F)(F)F)cc(=O)n(-c2ccc3snc(CSCC(=O)NS(C)(=O)=O)c3c2)c1=O	0.0
Cn1c(C(F)(F)F)cc(=O)n(-c2ccc3snc(C(=O)Nc4cc(C(C)(C)C)on4)c3c2)c1=O	2.0
Cn1c(C(F)(F)F)cc(=O)n(-c2ccc3snc(C(=O)CBr)c3c2)c1=O	2.0

* * *

Test system: Oryza sativa, (L.) Tebonnet
Assay: Rice tolerance to post-transplant applications under flooded paddy conditions (Example 187), ORYSAT (Rice, Tebonnet)
Conditions: Rate 0.1250 kg/ha, rated three to four weeks after treatment
property: herbicidal effect rating ORYSAT

smiles-repr	quantitative-readout
C#CCOC(=O)COc1cccc(-c2nsc3ccc(-n4c(=O)cc(C(F)(F)F)n(C)c4=O)cc23)c1	5.5
Cn1c(C(F)(F)F)cc(=O)n(-c2ccc3snc(-c4ccccc4OCC(=O)O)c3c2)c1=O	7.0
Cn1c(C(F)(F)F)cc(=O)n(-c2ccc3snc(CN=C=S)c3c2)c1=O	2.0
CCCCS(=O)(=O)NC(=O)COc1ccc(C)cc1-c1nsc2ccc(-n3c(=O)cc(C(F)(F)F)n(C)c3=O)cc12	0.0

* * *

Test system: Oryza sativa, (L.) Tebonnet
Test: Rice tolerance to post-transplant applications under flooded paddy conditions (Example 187), ORYSAT (Rice, Tebonnet)
Details: 0.0320 kg/ha, herbicidal effect rating 0-9, three to four weeks after treatment

molecule	ORYSAT
COC(=O)CN(C(=O)c1nsc2ccc(-n3c(=O)cc(C(F)(F)F)n(C)c3=O)cc12)S(=O)(=O)Cc1ccccc1 [Example 441]	0.0
Cn1c(C(F)(F)F)cc(=O)n(-c2ccc3snc(C(=O)SCc4ccccc4)c3c2)c1=O [Example 421]	0.0
Cn1c(C(F)(F)F)cc(=O)n(-c2ccc3snc(C(Br)S(=O)(=O)c4ccccc4)c3c2)c1=O (stereo not drawn) [Example 407]	0.0
COc1cc(C)c(I)cc1-c1nsc2ccc(-n3c(=O)cc(C(F)(F)F)n(C)c3=O)cc12 [Example 429]	1.3
CCC(C#N)c1nsc2ccc(-n3c(=O)cc(C(F)(F)F)n(C)c3=O)cc12 (stereo not drawn) [Example 444]	4.5
Cn1c(C(F)(F)F)cc(=O)n(-c2ccc3snc(C(=O)Nc4nc(C(F)(F)F)c(Cl)s4)c3c2)c1=O [Example 439]	0.0
Cn1c(C(F)(F)F)cc(=O)n(-c2ccc3snc(C(=O)NS(=O)(=O)Cc4ccc(C(C)(C)C)cc4)c3c2)c1=O [Example 405]	0.0
CN(C)/N=C/c1nsc2ccc(-n3c(=O)cc(C(F)(F)F)n(C)c3=O)cc12 [Example 409]	3.0
COC(=O)COc1cc2c(cc1-c1nsc3ccc(-n4c(=O)cc(C(F)(F)F)n(C)c4=O)cc13)CCC2 [Example 434]	4.0
CCOC(=O)c1nsc2cc(F)c(-n3c(=O)cc(C(F)(F)F)n(C)c3=O)cc12 [Example 423]	5.0
Cn1c(C(F)(F)F)cc(=O)n(-c2ccc3snc(C(=O)NS(=O)(=O)Cc4ccccc4[N+](=O)[O-])c3c2)c1=O [Example 404]	0.0
COc1ccc(I)cc1-c1nsc2ccc(-n3c(=O)cc(C(F)(F)F)n(C)c3=O)cc12 [Example 448]	3.5
CC(Cl)c1nsc2ccc(-n3c(=O)cc(C(F)(F)F)n(C)c3=O)cc12 (stereo not drawn) [Example 416]	6.0
Cc1ccsc1C=C(C#N)c1nsc2ccc(-n3c(=O)cc(C(F)(F)F)n(C)c3=O)cc12 [Example 457]	0.0
CC(c1ccccc1)S(=O)(=O)NC(=O)c1nsc2ccc(-n3c(=O)cc(C(F)(F)F)n(C)c3=O)cc12 (stereo not drawn) [Example 427]	0.0
